# Lookup of reported Prooxidant activity (induction factor) keyed by entry
System: E. coli MG1655 (pSoxS-lux)
Assay: Prooxidant activity, bacterial lux-biosensor
Assay type: cell-based, Escherichia coli
Details: 10^−6 M

Consider the reported Prooxidant activity (induction factor) for these molecules:
INSERT INTO measurements (molecule, value) VALUES
  ('COc1ccc(NC(=O)N2CCCC2c2ccc(Nc3c([N+](=O)[O-])c(Cl)cc4c3no[n+]4[O-])cc2O)cc1 (centres unmarked)', '1.46 ± 0.03'),
  ('O=C(Nc1ccc(Br)cc1)N1CCCC1c1ccc(Nc2c([N+](=O)[O-])c(Cl)cc3c2no[n+]3[O-])cc1O (centres unmarked)', '1.60 ± 0.23'),
  ('O=[N+]([O-])c1c(Cl)cc2c(no[n+]2[O-])c1Nc1cccc(O)c1', '1.54 ± 0.07'),
  ('O=C(Nc1ccc(F)cc1)N1CCCC1c1ccc(Nc2c([N+](=O)[O-])c(Cl)cc3c2no[n+]3[O-])cc1O (centres unmarked)', '1.34 ± 0.10');

Query block: State, in one line, measured Prooxidant activity (induction factor) of O=C(Nc1ccccc1)N1CCCC1c1ccc(Nc2c([N+](=O)[O-])c(Cl)cc3c2no[n+]3[O-])cc1O (centres unmarked)
Result block: 1.24 ± 0.11
